test-description: Total clearance in human with creatinine clearance of =< 30 ml/min at 1500 mg, iv administered as single dose after 60 mins after 60 mins
Type: ADME, organism-based
test-settings: in vivo
readout: clearance (mL/min)
Numbers only, in mL/min.

Returns the measured clearance for the input compound. Input: C[C@@H](O)[C@H]1C(=O)N2C(C(=O)O)=C(S[C@H]3C[C@@H](C(=O)N4CC[C@H](NC(=O)CNC(=N)N)C4)N(C)C3)[C@H](C)[C@H]12 [TOMOPENEM]
25.3

* * *

test-description: Total clearance in healthy human at 700 mg, iv administered as single dose
Format: ADME, organism-based
test-settings: in vivo
readout: clearance (mL/min)
Numbers only, in mL/min.

Returns the measured clearance for the input compound. Input: C[C@@H](O)[C@H]1C(=O)N2C(C(=O)O)=C(S[C@H]3C[C@@H](C(=O)N4CC[C@H](NC(=O)CNC(=N)N)C4)N(C)C3)[C@H](C)[C@H]12
135

* * *

test-description: Apparent half-life in human with creatinine clearance of 50-79 ml/min at 1500 mg, iv administered as single dose
Type: ADME, organism-based
test-settings: in vivo
readout: half-life (h)
Give bare numbers, in h.

Returns the measured half-life for the input compound. Input: C[C@@H](O)[C@H]1C(=O)N2C(C(=O)O)=C(S[C@H]3C[C@@H](C(=O)N4CC[C@H](NC(=O)CNC(=N)N)C4)N(C)C3)[C@H](C)[C@H]12
3

* * *

test-description: AUC (infinity) in human with creatinine clearance of 30-49 ml/min at 1500 mg, iv administered as single dose measured after 60 mins
Format: ADME, organism-based
Design: dose 1500 mg, route intravenous, time infinity
test-settings: plasma
readout: AUC(0-inf) (µg·h/mL)
Numbers only, in µg·h/mL.

Returns the measured AUC(0-inf) for the input molecule. Input: C[C@@H](O)[C@H]1C(=O)N2C(C(=O)O)=C(S[C@H]3C[C@@H](C(=O)N4CC[C@H](NC(=O)CNC(=N)N)C4)N(C)C3)[C@H](C)[C@H]12
517

* * *

test-description: Dose normalized excretion in human with creatinine clearance of 50-79 ml/min at 1500 mg, iv administered as single dose after 24 hrs
Assay type: ADME, organism-based
test-settings: in vivo, read-out: Activity
readout: dose excreted at 24 h (%)
Give bare numbers, in %.

Returns the measured dose excreted at 24 h for the input compound. Input: C[C@@H](O)[C@H]1C(=O)N2C(C(=O)O)=C(S[C@H]3C[C@@H](C(=O)N4CC[C@H](NC(=O)CNC(=N)N)C4)N(C)C3)[C@H](C)[C@H]12
72.6

* * *

test-description: Apparent half-life in human with creatinine clearance of => 80 ml/min at 1500 mg, iv administered as single dose
Format: ADME, organism-based
test-settings: in vivo
readout: half-life (h)
Answers are plain numbers, in h.

Returns the measured half-life for the input compound. Input: C[C@@H](O)[C@H]1C(=O)N2C(C(=O)O)=C(S[C@H]3C[C@@H](C(=O)N4CC[C@H](NC(=O)CNC(=N)N)C4)N(C)C3)[C@H](C)[C@H]12
2.23

* * *

test-description: Dose normalized excretion in human with creatinine clearance of => 80 ml/min at 1500 mg, iv administered as single dose after 24 hrs
Format: ADME, organism-based
test-settings: in vivo, read-out: Activity
readout: dose excreted at 24 h (%)
Give bare numbers, in %.

Returns the measured dose excreted at 24 h for the input compound. Input: C[C@@H](O)[C@H]1C(=O)N2C(C(=O)O)=C(S[C@H]3C[C@@H](C(=O)N4CC[C@H](NC(=O)CNC(=N)N)C4)N(C)C3)[C@H](C)[C@H]12
57.4

* * *

test-description: Tmax in human with creatinine clearance of =< 30 ml/min at 1500 mg, iv administered as single dose
Type: ADME, organism-based
test-settings: in vivo
readout: Tmax (h)
Give bare numbers, in h.

Returns the measured Tmax for the input molecule. Input: C[C@@H](O)[C@H]1C(=O)N2C(C(=O)O)=C(S[C@H]3C[C@@H](C(=O)N4CC[C@H](NC(=O)CNC(=N)N)C4)N(C)C3)[C@H](C)[C@H]12
1.02

* * *

test-description: Volume of distribution in healthy human at 700 mg, iv administered as single dose
Format: ADME, organism-based
test-settings: in vivo
readout: Vd (L)
Numbers only, in L.

Returns the measured Vd for the input molecule. Input: C[C@@H](O)[C@H]1C(=O)N2C(C(=O)O)=C(S[C@H]3C[C@@H](C(=O)N4CC[C@H](NC(=O)CNC(=N)N)C4)N(C)C3)[C@H](C)[C@H]12
17

* * *

test-description: Renal clearance in human with creatinine clearance of =< 30 ml/min at 1500 mg, iv administered as single dose after 24 hrs
Type: ADME, organism-based, Kidney
test-settings: in vivo, read-out: CL_renal (converted)
readout: CL renal at 24 h
Note: state the figure and append the unit.

Returns the measured CL renal at 24 h for the input compound. Input: C[C@@H](O)[C@H]1C(=O)N2C(C(=O)O)=C(S[C@H]3C[C@@H](C(=O)N4CC[C@H](NC(=O)CNC(=N)N)C4)N(C)C3)[C@H](C)[C@H]12
9.83 mL/min

* * *

test-description: Dose normalized excretion in human with creatinine clearance of =< 30 ml/min at 1500 mg, iv administered as single dose after 24 hrs
Type: ADME, organism-based
test-settings: in vivo, read-out: Activity
readout: dose excreted at 24 h (%)
Numbers only, in %.

Returns the measured dose excreted at 24 h for the input compound. Input: C[C@@H](O)[C@H]1C(=O)N2C(C(=O)O)=C(S[C@H]3C[C@@H](C(=O)N4CC[C@H](NC(=O)CNC(=N)N)C4)N(C)C3)[C@H](C)[C@H]12
41.2

* * *

test-description: Cmax in human with creatinine clearance of =< 30 ml/min at 1500 mg, iv administered as single dose measured after 60 mins
Format: ADME, organism-based
Parameters: dose 1500 mg, route intravenous
test-settings: in vivo
readout: Cmax (µg/mL)
Numbers only, in µg/mL.

Returns the measured Cmax for the input molecule. Input: C[C@@H](O)[C@H]1C(=O)N2C(C(=O)O)=C(S[C@H]3C[C@@H](C(=O)N4CC[C@H](NC(=O)CNC(=N)N)C4)N(C)C3)[C@H](C)[C@H]12
116

* * *

test-description: Total clearance in human with creatinine clearance of => 80 ml/min at 1500 mg, iv administered as single dose measured after 60 mins
Type: ADME, organism-based
test-settings: in vivo
readout: clearance (mL/min)
One number for each entry, in mL/min.

Returns the measured clearance for the input compound. Input: C[C@@H](O)[C@H]1C(=O)N2C(C(=O)O)=C(S[C@H]3C[C@@H](C(=O)N4CC[C@H](NC(=O)CNC(=N)N)C4)N(C)C3)[C@H](C)[C@H]12
135
